# T/C listing for each entry below
tested on: L1210 leukemia ip in BDF1 mice, survival T/C; experiment: NCI In Vivo Anticancer Drug Screen. Data for tumor model L1210 Leukemia (intraperitoneal) in B6D2F1 (BDF1) mice; settings: endpoint: mean survival time; dose: 60.0 mg/kg/injection; schedule: Q01DX Z (oral); vehicle: carboxymethylcellulose (CMC); higher = longer survival
Inconclusive results and toxic doses are left out.

| smiles.code | T/C |
| --- | --- |
| NC(N)=N/N=C(/CCC(=O)O)C(=O)O | 104 % of control |
| CCCCCCCCCCCCCCCCC/C=N\N=C(N)N | 106 % of control |
| COc1cc(/C=N/N=C(N)N)cc(I)c1O | 95 % of control |
| NC(N)=N/N=C(C(=O)O)/C(=N\N=C(N)N)C(=O)O | 101 % of control |
